Each recorded value in this set is attributed to the kinase profiling compilation of Christmann-Franck et al. (2016).

# study.system: TBK1 (human)
# assay.notes: KINOMEscan competition binding
# particulars: compound 10.0 µM
Param label: returns TRUE when kinase still bound, per cent of control < 70%, returns FALSE otherwise, including exact equality.

• CC1=C(C(=O)Nc2cc3cn[nH]c3cc2F)C(c2ccc(C(F)(F)F)cc2)CC(=O)N1 (stereo not given) = FALSE
• CCc1nc(-c2cccc(C)c2)c(-c2ccnc(NC(=O)c3ccccc3)c2)s1 = FALSE
• CC(=O)c1c(C)c2cnc(Nc3ccc(N4CCNCC4)cn3)nc2n(C2CCCC2)c1=O = TRUE
• C=CC(=O)Nc1ccc(C(=O)c2sc(Nc3ccc(N4CCN(C)CC4)cc3OC)nc2N)cc1 = FALSE
• CNC(=O)Nc1ccc(-c2nc(N3CC4CCC(C3)O4)c3cnn(C4CCC5(CC4)OCCO5)c3n2)cc1 = FALSE
• CCN1CCN(Cc2ccc(NC(=O)c3ccc(C)c(/C=C/c4cnc5[nH]ccc5c4OC)c3)cc2C(F)(F)F)CC1 = TRUE
• Cc1cn(-c2cc(C(=O)Nc3ccc(C)c(NC(=O)c4ccno4)c3)cc(C(F)(F)F)c2)cn1 = FALSE
• COc1cc2c(Nc3ccc(NC(=O)c4ccccc4)cc3)ncnc2cc1OCCCN1CCOCC1 = TRUE
• CCOc1cc(N2CCC(O)CC2)ccc1Nc1ncc2c(n1)N(C)c1ccccc1C(=O)N2C = FALSE
• N#Cc1cc(-c2ccnc(Nc3ccc(-n4cnc(-c5cccnc5)n4)cc3)n2)cc(N2CCOCC2)c1 = TRUE
• COc1cc2ncnc(Nc3cccc(Cl)c3)c2cc1OC = TRUE
• CCCS(=O)(=O)Nc1ccc(F)c(C(=O)c2c[nH]c3ncc(Cl)cc23)c1F = FALSE
• N#C/C(=C1/Nc2ccccc2S1)c1ccnc(NCCc2cccnc2)n1 = FALSE
• CCN(CCO)CCCOc1ccc2c(Nc3cc(CC(=O)Nc4cccc(F)c4)[nH]n3)ncnc2c1 = FALSE
